B1: FBF1 (parent)
chain: LQRASILDMRRDHEEQLQRLKLLK

Variants of: B1
Assay: protein stability index of a GFP-peptide fusion (GPS, HEK-293T) (PSI 1-6); higher = more stable;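 note: lentivirally expressed fusions sorted by FACS into six bins by GFP to DsRed ratio, PSI derived from sequencing read proportions per bin multiplied by bin number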
Conditions: c terminus: a fixed tail appended
protein stability index reference
API doc: respond with a numeric literal and nothing else, no unit.

Illustrative cases are given below, each with its answer.
Req: Hello, please tell me recorded protein stability index for this one: `Q18Y`
Resp: 2.78

Req: Please give the documented protein stability index of `I6H`
Resp: 4.19

Req: Give protein stability index for `Q2P`
Resp: 3.95

Req: State its protein stability index: `L17R`
Resp: 3.54

Now consider the entry below.
Req: Consider the variant `S5M` . State its measured protein stability index.
Resp: 3.03
